# credit: patent US20250041312A1

test: SAD study in healthy volunteers: PK in plasma, whole blood, red blood cells
Assay type: in vivo, human
particulars: human, whole blood, 100 mg, HV single 100 mg; whole blood; mean; read-out: t1/2 (converted)

>  <smiles-string>
O=Cc1c(O)cccc1OC[C@@H]1COCCN1C(=O)c1cccnc1CCO

>  <half-life, days>
29.8

$$$$

----------
test: SAD study in healthy volunteers: PK in plasma, whole blood, red blood cells
Format: in vivo, human
particulars: human, plasma, po, 100 mg, HV single oral 100 mg (Cohort 2); plasma; geometric mean; read-out: AUClast
parameter: AUC(0-t) (ng·h/mL)

>  <smiles-string>
O=Cc1c(O)cccc1OC[C@@H]1COCCN1C(=O)c1cccnc1CCO

>  <unit-tag>
ng·h/mL

>  <measured-result>
68700

$$$$
